test: Plasma and brain concentrations after injection (UPLC); type: in vivo; details: female, CD-1, mouse, plasma, sc; 2 h after s.c. injection; read-out: concentration in plasma
quantityMeasured: tissue level at time at 2 h (ng/g)
The reply should contain only the number, in ng/g.

Challenge: Could you please provide reported tissue level at time at 2 h for `CC(C)C[C@H](NC(=O)[C@H](Cc1ccccc1)NC(=O)CNC(=O)CNC(=O)[C@H](Cc1ccc(O)cc1)NC(=O)C(C)(C)C)C(=O)O` ? Thanks!
Response given: 170000

* * *

molecular target: UniProt:P41143; details: relative scintillation compared to Leu-ENK at 6 nmol/L; [3H]DADLE displacement; mean of duplicates
Sequence (P41143 whole entry): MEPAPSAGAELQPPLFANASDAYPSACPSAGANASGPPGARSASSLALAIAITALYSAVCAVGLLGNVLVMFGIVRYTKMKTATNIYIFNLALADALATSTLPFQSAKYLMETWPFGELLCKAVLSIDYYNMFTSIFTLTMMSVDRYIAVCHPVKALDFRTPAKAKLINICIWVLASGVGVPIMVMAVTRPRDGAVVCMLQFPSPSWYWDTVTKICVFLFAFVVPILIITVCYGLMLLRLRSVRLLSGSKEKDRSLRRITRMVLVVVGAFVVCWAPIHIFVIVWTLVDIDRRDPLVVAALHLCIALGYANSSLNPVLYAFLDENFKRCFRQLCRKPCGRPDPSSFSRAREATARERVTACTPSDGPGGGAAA
Decide using Relative Binding to DOR: a value greater than or equal to 30% is True, a smaller one is False.

Challenge: Does the molecule `COC(=O)[C@H](CC(C)C)NC(=O)[C@H](Cc1ccccc1)NC(=O)CNC(=O)CNC(=O)[C@H](Cc1ccc(O)cc1)NC(=O)Cc1ccccc1` have recorded Relative Binding to DOR that is 30% or more?
Response given: True

Challenge: Item `COC(=O)[C@H](CC(C)C)NC(=O)[C@H](Cc1ccccc1)NC(=O)CNC(=O)CNC(=O)[C@H](Cc1ccc(O)cc1)NC(=O)C1CCCCC1` with Relative Binding to DOR of 30% or above?
Response given: False

Challenge: Dear colleague, could you confirm whether `COC(=O)[C@H](CC(C)C)NC(=O)[C@H](Cc1ccccc1)NC(=O)CNC(=O)CNC(=O)[C@H](Cc1ccc(O)cc1)NC(C)=O` has Relative Binding to DOR at or above 30%?
Response given: True

Challenge: Check the entry `CCCCCCCC(=O)N[C@@H](Cc1ccc(O)cc1)C(=O)NCC(=O)NCC(=O)N[C@@H](Cc1ccccc1)C(=O)N[C@@H](CC(C)C)C(=O)OC` : does Relative Binding to DOR equal or exceed 30%?
Response given: True

Challenge: API: above_or_equal(metric=Relative Binding to DOR, cutoff=30%) for item `CCCCCC(=O)N[C@@H](Cc1ccc(O)cc1)C(=O)NCC(=O)NCC(=O)N[C@@H](Cc1ccccc1)C(=O)N[C@@H](CC(C)C)C(=O)OC`
Response given: True

Challenge: # bool: Relative Binding to DOR of `C=CCCC(=O)N[C@@H](Cc1ccc(O)cc1)C(=O)NCC(=O)NCC(=O)N[C@@H](Cc1ccccc1)C(=O)N[C@@H](CC(C)C)C(=O)OC` >= 30%
Response given: True

* * *

test: Plasma stability assay; assay type: in vitro ADME, mouse; details: mouse, plasma, extrapolated
quantityMeasured: half-life at 0.315 mmol/L (min)
Numbers only; they are read as min.

Challenge: Look up half-life at 0.315 mmol/L of `CC(C)C[C@H](NC(=O)[C@H](Cc1ccccc1)NC(=O)CNC(=O)CNC(=O)[C@H](Cc1ccc(O)cc1)NC(=O)C(C)(C)C)C(=O)O` and report it.
Response given: 2220

* * *

assay: Plasma stability assay; assay type: in vitro ADME, mouse; settings: mouse plasma, 37° C., 1 h; read-out: Intact peptide after 1 h in plasma
The reader will find reported remaining at 1 h, 0.315 mmol/L values listed item by item below.
# output: bare number, implied unit %

Consider the worked cases shown below.
CCCCCCCC(=O)N[C@@H](Cc1ccc(O)cc1)C(=O)NCC(=O)NCC(=O)N[C@@H](Cc1ccccc1)C(=O)N[C@@H](CC(C)C)C(=O)OC = 80
COC(=O)[C@H](CC(C)C)NC(=O)[C@H](Cc1ccccc1)NC(=O)CNC(=O)CNC(=O)[C@H](Cc1ccc(O)cc1)NC(C)=O = 82

Challenge: State its remaining at 1 h, 0.315 mmol/L for this molecule: `C=CCCC(=O)N[C@@H](Cc1ccc(O)cc1)C(=O)NCC(=O)NCC(=O)N[C@@H](Cc1ccccc1)C(=O)N[C@@H](CC(C)C)C(=O)OC`
Response given: 73
